Here, each record is paired with measured normalized growth data.
- method notes: chemical genetic growth profiling, strain panel (AID 1159580);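 further: tested at 20 µM; growth read once vehicle control cultures reached saturation at 30 °C; 1 = growth at the plate median or of vehicle wells; lower values mean less growth of the strain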
- condition: S. cerevisiae deletion strains, growth OD, locus YAL030W, strain snc1, stronger effect = lower value
About 2,000 (36%) of roughly 5,500 compounds were called active. Roughly 18% stayed inconclusive and do not appear here. Some of the results follow.

Some entries whose results are on file:
1. CCn1cc(C(=O)O)c(=O)c2cc(F)c(N3CCNCC3)cc21    0.988 (inactive)
2. CC[C@]12C=CCN3CC[C@@]4(c5ccc(OC)cc5N(C)C4[C@@](O)(C(=O)OC)[C@@H]1OC(C)=O)[C@@H]32 (stereo not given in full)    1.02 (inactive)
3. O=c1oc2ccccc2c(O)c1Cc1c(O)c2ccccc2oc1=O    1.02 (inactive)
4. C=CCc1ccccc1OCC(O)CNC(C)C (stereo not given)    0.995 (inactive)
5. NCCc1ccc(O)cc1    0.989 (inactive)

Which normalized growth reading was recorded for the compound CC(=O)Nc1cccc(O)c1 ?
1.01 (inactive)

Continue with [N-]=[N+]=CC(=O)OCC(N)C(=O)O (stereo not given)
1.02 (inactive)

Continue with CC(=O)Nc1ccc(OC(=O)c2ccccc2O)cc1
0.994 (inactive)

Continue with CCN1CCN(c2cc3c(cc2F)c(=O)c(C(=O)O)cn3C2CC2)CC1
1.01 (inactive)

Continue with CC(=O)Nc1ccc(O)cc1
1.02 (inactive)

====

Here, each record is paired with measured normalized growth data.
- method notes: chemical genetic growth profiling, strain panel (AID 1159580);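 further: tested at 20 µM; growth read once vehicle control cultures reached saturation at 30 °C; 1 = growth at the plate median or of vehicle wells; lower values mean less growth of the strain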
- condition: S. cerevisiae deletion strains, growth OD, locus YPR135W, strain CTF4, stronger effect = lower value
Hit rate of the full screen: of about 5,500 compounds, about 2,000 (36%) were called active. Not shown: some 18% with an inconclusive outcome. The list shows a part of the results.
API note: the answer field is a bare number with no unit suffix.

Some entries whose results are on file:
1. CCCCCCCCCCc1ccc(-c2ccccc2)cc1    0.897
2. COC(=O)c1ccc(Cl)cc1N(Cc1ccccc1)S(C)(=O)=O    1.17
3. Cc1cc(C(F)(F)F)c(C#N)c(=O)[nH]1    1.06
4. O=C(O)c1coc2ccccc2c1=O    0.892
5. CCOC(=O)c1ccc2oc3ccc(O)cc3c(=O)c2c1    0.872

Which normalized growth reading was recorded for the molecule Cc1ccc(COc2ccc(C)nc2[N+](=O)[O-])cc1 ?
0.382

Continue with Cc1c(C)c(C)c(CO)c(C)c1C
1

====

- method notes: chemical genetic growth profiling, strain panel (AID 1159580);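 further: tested at 20 µM; growth read once vehicle control cultures reached saturation at 30 °C; 1 = growth at the plate median or of vehicle wells; lower values mean less growth of the strain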
- condition: S. cerevisiae deletion strains, growth OD, locus YLR268W, strain sec22
Among all 5,500 compounds or so, about 2,000 (36%) were called active. Roughly 18% stayed inconclusive and do not appear here. Cut-off read from the data, not from the text of the source: active = normalized growth mostly below about 0.91 (no sharp cut-off); inconclusive = no clear call, values can overlap the other calls; inactive = mostly above about 0.92. This is one part of the list.
Your reply should match one of these outcome classes. active, inactive

1) C=CCCCCCCCCCCCC(O)CC(O)CO (stereo not given)    inactive

Kindly provide the recorded test outcome for the following molecule: NCCc1cccc(O)c1
inactive

Continue with CCC(/C=C/[C@@H](C)[C@H]1CCC2C3CC=C4C[C@@H](O)CC[C@]4(C)C3CC[C@@]21C)C(C)C (stereo not given in full)
inactive

Continue with CNCCC=C1c2ccccc2CCc2ccccc21
inactive

Continue with CCCCCCCCCc1ccc(O)cc1
active
